Tested on: HCT-116 colon
Test: NCI-60 one-dose screen, 48 h
Conditions: 10 µM unless noted
Compounds without any hit were thinned out: in the full panel of roughly 83,000, 20% have a hit. Calls of active or inactive are those of the source. Rule for the calls: active = growth percent below 10; inactive = the rest.
Give your call using only these classes: active, inactive

Query string: Record lookup: outcome of this test for "CC(=O)Nc1ccc(C(=O)COc2cccc(/C=C3\CCc4ccccc4C3=O)c2)cc1" ?
Result string: inactive

Query string: Record lookup: outcome of this test for "COc1ccc(-c2cnc(SCC(=O)Nc3ccc(-c4nc5ccccc5s4)cc3)n2-c2ccc(OC)cc2)cc1" ?
Result string: inactive

Query string: Record lookup: outcome of this test for "CCSc1ncc(Br)c(Sc2nc(N)nc3nc[nH]c23)n1" ?
Result string: inactive

Query string: Record lookup: outcome of this test for O=c1ccn(C2CC=C(CO)O2)c(=O)[nH]1 (stereo not given) ?
Result string: inactive

// data source = PubChem BioAssay (NCI)
